# measurement.notes: activity coefficient (dimensionless); of the first substance listed, at infinite dilution; xn = mol fraction of the nth substance listed
# experimental.conditions: 313.1 K; 101.33 kPa; Liquid; Chromatography; x1 = 0
// thresholds for activity coefficient classes: b0 (below 4), b1 (4 to below 50), b2 (50 or more)

[[record]]
molecule = "CCCCCCC [heptane] + CCCC[N+]1(C)CCCC1.O=S(=O)([N-]S(=O)(=O)C(F)(F)F)C(F)(F)F"
group_label = "b1"

[[record]]
molecule = "Cc1ccccc1C [1,2-dimethylbenzene] + CCCC[n+]1ccc(C)cc1.F[B-](F)(F)F"
group_label = "b1"

[[record]]
molecule = "CC1CCCC1 [methylcyclopentane] + CCCC[n+]1ccc(C)cc1.F[B-](F)(F)F"
group_label = "b1"

[[record]]
molecule = "CCCCCCCC [octane] + CCCC[N+]1(C)CCCC1.O=S(=O)([N-]S(=O)(=O)C(F)(F)F)C(F)(F)F"
group_label = "b1"


// query Returns: class label. Input: CCCCCCCCC [nonane] + CCCC[n+]1ccc(C)cc1.F[B-](F)(F)F
// result b2

// query Returns: class label. Input: CCCCCCCC [octane] + CCCC[n+]1ccc(C)cc1.F[B-](F)(F)F
// result b2

// query Returns: class label. Input: Cc1ccccc1 [toluene] + CCCCn1cc[n+](C)c1.F[B-](F)(F)F
// result b0

// query Returns: class label. Input: CC1CCCCC1 [methylcyclohexane] + CCCCn1cc[n+](C)c1.F[B-](F)(F)F
// result b1

// query Returns: class label. Input: Cc1ccccc1C [1,2-dimethylbenzene] + CCCC[N+]1(C)CCCC1.O=S(=O)([N-]S(=O)(=O)C(F)(F)F)C(F)(F)F
// result b0

---

# measurement.notes: activity coefficient (dimensionless); of the first substance listed, at infinite dilution; xn = mol fraction of the nth substance listed
# experimental.conditions: 353.1 K; 101.33 kPa; Liquid; Chromatography; x1 = 0
Reported activity coefficient values for a set of compounds
Please state the value as a number alone, without comment.

[[record]]
compound = "Cc1ccccc1C [1,2-dimethylbenzene] + CCCC[n+]1ccc(C)cc1.F[B-](F)(F)F"
quantitative_readout = 4.59

[[record]]
compound = "CCCCCCCC [octane] + CCCC[n+]1ccc(C)cc1.F[B-](F)(F)F"
quantitative_readout = 99.8

[[record]]
compound = "CC1CCCCC1 [methylcyclohexane] + CCCC[n+]1ccc(C)cc1.F[B-](F)(F)F"
quantitative_readout = 33.1

[[record]]
compound = "CCCCCCCC [octane] + CCCC[N+]1(C)CCCC1.O=S(=O)([N-]S(=O)(=O)C(F)(F)F)C(F)(F)F"
quantitative_readout = 19.1


From here, focus on the item given below.
The compound CCCCCC [hexane] + CCCC[N+]1(C)CCCC1.O=S(=O)([N-]S(=O)(=O)C(F)(F)F)C(F)(F)F showed activity coefficient equal to 9.5

---

# measurement.notes: activity coefficient (dimensionless); of the first substance listed, at infinite dilution; xn = mol fraction of the nth substance listed
# experimental.conditions: 333.1 K; 101.33 kPa; Liquid; Chromatography; x1 = 0
Mark TRUE only when activity coefficient stays strictly below 8. Values equal to the cut-off are FALSE.

Field: example entries. Status: answers known.
[[record]]
compound = "CC1CCCCC1 [methylcyclohexane] + CCCC[N+]1(C)CCCC1.O=S(=O)([N-]S(=O)(=O)C(F)(F)F)C(F)(F)F"
group_label = "TRUE"

[[record]]
compound = "CC1CCCC1 [methylcyclopentane] + CCCCn1cc[n+](C)c1.F[B-](F)(F)F"
group_label = "FALSE"

[[record]]
compound = "CCCCCC [hexane] + CCCC[n+]1ccc(C)cc1.F[B-](F)(F)F"
group_label = "FALSE"


// query I wonder whether CCCCCCCC [octane] + CCCC[n+]1ccc(C)cc1.F[B-](F)(F)F has activity coefficient below 8. Can you tell?
// result FALSE

// query I wonder whether CC1CCCC1 [methylcyclopentane] + CCCC[N+]1(C)CCCC1.O=S(=O)([N-]S(=O)(=O)C(F)(F)F)C(F)(F)F has activity coefficient below 8. Can you tell?
// result FALSE

// query I wonder whether Cc1ccccc1C [1,2-dimethylbenzene] + CCCC[N+]1(C)CCCC1.O=S(=O)([N-]S(=O)(=O)C(F)(F)F)C(F)(F)F has activity coefficient below 8. Can you tell?
// result TRUE
